# Subject of test: PHD2 enzyme (residues 181-417) (Homo sapiens, UniProt Q9GZT9)
# Construct: The IC50 values for the PHD2 enzyme (residues 181-417) were determined
# Sequence (Q9GZT9 181-417): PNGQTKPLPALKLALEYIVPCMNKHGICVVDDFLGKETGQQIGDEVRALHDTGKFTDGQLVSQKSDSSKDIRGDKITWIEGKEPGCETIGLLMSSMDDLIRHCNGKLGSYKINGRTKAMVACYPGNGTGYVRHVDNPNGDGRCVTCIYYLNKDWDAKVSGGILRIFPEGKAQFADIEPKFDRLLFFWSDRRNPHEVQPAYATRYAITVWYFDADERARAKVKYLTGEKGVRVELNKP
# Assay protocol: Inhibition of PHD2 Enzyme (LC/MS detection of hydroxylated peptide)
# Format: biochemical
# Measurement conditions: 5 nM enzyme, 1 μM biotin-labeled peptide, 2 μM 2-oxoglutarate, 60 min pre-incubation, pH 7.3; -log(IC50), IC50 molar; read-out: Inhibition of PHD2 (pIC50) (converted)
Threshold check on IC50: strictly below 60 nM is criterion met; on or above 60 nM is criterion not met.

Past entries and their recorded results:
>  <Compound>
N#Cc1ccc(CNC(=O)c2ncccc2O)cn1

>  <Class name>
criterion not met

$$$$
>  <Compound>
N#Cc1ccc2c(c1)CC[C@H]2NC(=O)c1ncccc1O [Example 19]

>  <Class name>
criterion met

$$$$
>  <Compound>
COc1cnc(C(=O)NCc2c(C)cc(C#N)cc2C)c(O)c1

>  <Class name>
criterion met

$$$$
>  <Compound>
Cc1cc(C#N)cc(C)c1CNC(=O)c1ncc(C#N)cc1O

>  <Class name>
criterion met

$$$$
>  <Compound>
N#Cc1ccc2c(c1)OCC2NC(=O)c1ncccc1O (centres unmarked)

>  <Class name>
criterion met

$$$$

Consider the additional compound presented here.
# check: IC50 < 60 nM for Cc1cc(C#N)ccc1CNC(=O)c1ncc(F)cc1O
criterion met
